System: VCAM-1
Assay: VCAM-1 ELISA on lysates of TNF-α stimulated HUVECs
Format: cell-based
Details: Homo sapiens, HUVEC, 50 uM, approx. 16 hours
Counter-ions that a name gives are not always drawn.
QUANTITY KIND: inhibition at 50 µM

| COMPOUND | SYSTEM TESTED | inhibition at 50 µM |
| --- | --- | --- |
| O=c1cc(-c2ccc(O)cc2)oc2cccnc12 [EXAMPLE 2] | VCAM-1 | < 50% |
| O=c1cc(-c2ccc(O)c(-c3cccs3)c2)oc2ncccc12 [EXAMPLE 28] | VCAM-1 | ≥ 50% |
| Nc1ccc(-c2cc(=O)c3cccnc3o2)cc1 [EXAMPLE 38, hydrochloride] | VCAM-1 | < 50% |

Qu. Name the reported inhibition at 50 µM value associated with the compound COc1ccc(-c2cc(=O)c3cccnc3o2)cc1 [EXAMPLE 9]
Ans. < 50%

Qu. May I ask what inhibition at 50 µM has been recorded for CC(C)Oc1ccc(-c2cc(=O)c3cc(CN4CCCC4)cnc3o2)cc1 [EXAMPLE 39, hydrochloride] ?
Ans. ≥ 50%

###

System: VCAM-1
Assay: VCAM-1 ELISA on lysates of TNF-α stimulated HUVECs
Assay type: cell-based
Details: Homo sapiens, HUVEC, 50 uM, approx. 16 hours
Structures can show the parent of a compound that is named as a salt.
QUANTITY KIND: inhibition at 50 µM

| COMPOUND | RESULT VALUE |
| --- | --- |
| O=c1cc(-c2ccc(O)c(Br)c2)oc2ncccc12 | ≥ 50% |
| O=c1cc(-c2ccccc2)oc2ncccc12 [EXAMPLE 22, 2-Phenyl-4H-pyrano[2,3-b]pyridin-4-one] | < 50% |
| CN(C)CCOc1ccc(-c2cc(=O)c3cccnc3o2)cc1 [EXAMPLE 27, dihydrochloride] | < 50% |
| COc1cc(-c2cc(=O)c3cccnc3o2)ccc1O | ≥ 50% |
| O=c1cc(-c2ccc(O)c(F)c2)oc2ncccc12 | ≥ 50% |

Qu. Provide the documented inhibition at 50 µM with VCAM-1 as the system for O=c1[nH]c(-c2ccc(O)cc2)cc2ccccc12 [EXAMPLE 21, 3-(4-Hydroxyphenyl)-2H-isoquinolin-1-one]
Ans. ≥ 50%

Qu. Can you look up inhibition at 50 µM on VCAM-1 for O=c1cc(-c2ccc(O)cc2)[nH]c2ccccc12 [EXAMPLE 14, 2-(4-Hydroxy-phenyl)-1H-quinolin-4-one] ?
Ans. ≥ 50%

Qu. Record lookup: for VCAM-1, what inhibition at 50 µM belongs to `O=c1cc(-c2ccc3nccnc3c2)oc2ncccc12` ?
Ans. ≥ 50%

Qu. # query: inhibition at 50 µM | item O=c1cc(-c2ccc(O)nc2)oc2ccccc12 [EXAMPLE 13, 2-(6-Hydroxypyridin-3-yl)-chromen-4-one] | system: VCAM-1
Ans. ≥ 50%

Qu. # returns recorded inhibition at 50 µM (system: VCAM-1) for `Cn1c(-c2ccc(O)c(F)c2)cc2ncccc2c1=O`
Ans. < 50%

Qu. API: value(readout= inhibition at 50 µM, system= VCAM-1, query= Cc1cc(-c2cc3ncccc3c(=O)[nH]2)cc(C)c1O [EXAMPLE 40, hydrochloride] )
Ans. < 50%

Qu. Notebook entry, VCAM-1 assay: inhibition at 50 µM of `O=c1cc(-c2ccc(O)cc2)oc2ncccc12` = ?
Ans. ≥ 50%

Qu. inhibition at 50 µM of `COc1cc(OC)c2c(N)nc(-c3cc(C)c(O)c(C)c3)cc2n1` on VCAM-1?
Ans. ≥ 50%

Qu. Param readout= inhibition at 50 µM; system= VCAM-1; entry= Oc1ccc(C=Cc2cc(O)cc(O)c2)cc1 [Resveratrol, resveratrol, reference compound] ; returns value.
Ans. 54%

Qu. Given the entry `O=c1cc(-c2ccc(O)cc2)oc2cnccc12` , what inhibition at 50 µM was observed with VCAM-1?
Ans. < 50%

###

Test system: VCAM-1
Test: VCAM-1 ELISA on lysates of TNF-α stimulated HUVECs
Type: cell-based
Settings: Homo sapiens, HUVEC, 50 uM, approx. 16 hours
Counter-ions that a name gives are not always drawn.
QUANTITY KIND: inhibition at 50 µM

// solved cases for inhibition at 50 µM follow
| MOLECULE | QUANTITY KIND | RESULT VALUE |
| --- | --- | --- |
| Cc1cc(-c2cc(=O)c3cccnc3o2)cc(C)c1OCCN1CCOCC1 [EXAMPLE 31, hydrochloride] | inhibition at 50 µM | ≥ 50% |
| O=c1cc(-c2ccc(O)cn2)oc2ccccc12 [EXAMPLE 11, 2-(5-Hydroxy-pyridin-2-yl)chromen-4-one] | inhibition at 50 µM | < 50% |
| Oc1ccc(-c2cc3ccccc3cn2)cc1 [EXAMPLE 15, 4-Isoquinolin-3-yl-phenol] | inhibition at 50 µM | ≥ 50% |
| COc1cc(OC)c2c(=O)[nH]c(-c3cc(C)c(OCC(C)(C)O)c(C)c3)cc2c1 [EXAMPLE 42] | inhibition at 50 µM | ≥ 50% |
| O=c1cc(-c2ccccc2)oc2ncc(CN3CCCC3)cc12 [EXAMPLE 35, hydrochloride] | inhibition at 50 µM | < 50% |

Qu. Which value of inhibition at 50 µM has been reported for CNc1nc(-c2cc(C)c(O)c(C)c2)cc2ccc(CN3CCN(C)CC3)cc12 [EXAMPLE 43, trihydrochloride] in the records?
Ans. ≥ 50%

Qu. // returns reported inhibition at 50 µM for input O=c1cc(-c2ccc(OCCO)cc2)oc2ncccc12 [EXAMPLE 10]
Ans. < 50%

Qu. Entry under review: O=c1cc(-c2ccc(F)cc2)oc2ncc(CN3CCCC3)cc12 [EXAMPLE 37, hydrochloride] . Reported inhibition at 50 µM?
Ans. ≥ 50%

###

System: VCAM-1
Test: VCAM-1 ELISA on lysates of TNF-α stimulated HUVECs
Type: cell-based
Conditions: Homo sapiens, HUVEC, 50 uM, approx. 16 hours
Where a name gives a salt, the structure may show the parent alone.
QUANTITY KIND: inhibition at 50 µM

| MOLECULE | inhibition at 50 µM |
| --- | --- |
| Cc1cc(-c2cc(=O)c3cccnc3o2)cc(C)c1OCC(=O)O [EXAMPLE 29] | < 50% |
| O=c1cc(-c2ccc(O)c(Cl)c2)oc2ncccc12 [EXAMPLE 7] | ≥ 50% |
| O=c1[nH]c(-c2ccc(F)cc2)nc2ccc(CN3CCOCC3)cc12 [EXAMPLE 46] | < 50% |
| CN(C)Cc1ccc2oc(-c3ccncc3)cc(=O)c2c1 [EXAMPLE 50] | < 50% |
| O=c1cc(-c2ccncc2)oc2ccccc12 [EXAMPLE 12, 2-Pyridin-4-yl-chromen-4-one] | ≥ 50% |

Qu. For COc1cc(O)nc2cc(-c3cc(C)c(O)c(C)c3)[nH]c(=O)c12 [EXAMPLE 41, dihydrochloride] , what is its reported inhibition at 50 µM?
Ans. ≥ 50%

Qu. Which inhibition at 50 µM value is on record for O=c1[nH]c2ccc(-c3cc(=O)c4ccccc4o3)cc2o1 [EXAMPLE 36] ?
Ans. ≥ 50%

Qu. Query (molecule): O=c1cc(-c2ccncc2)oc2ncccc12 [EXAMPLE 30, hydrochloride] ; field requested: inhibition at 50 µM
Ans. < 50%

Qu. For O=c1cc(-c2ccc(O)cc2)oc2ccncc12 [EXAMPLE 6] , what is its reported inhibition at 50 µM?
Ans. ≥ 50%

###

melting point listing for selected compounds.
Counter-ions that a name gives are not always drawn.

Recorded results for 3 compounds are shown here.
| COMPOUND | QUANTITY KIND | RESULT VALUE |
| --- | --- | --- |
| Cc1cc(-c2cc(=O)c3cccnc3o2)cc(C)c1OCCN1CCOCC1 (as salt: hydrochloride) | melting point | 276 to 278 °C |
| O=c1cc(-c2ccc(F)cc2)oc2ncc(CN3CCCC3)cc12 (as salt: hydrochloride) | melting point | 265 to 268 °C |
| Cc1cc(-c2cc(=O)c3cccnc3o2)cc(C)c1O | melting point | 295 to 297 °C |

--- query ---
Qu. // melting point lookup, key: `O=c1cc(-c2ccc(O)cc2)oc2cnccc12`
Ans. 294 to 296 °C

###

Test system: VCAM-1
Assay: VCAM-1 ELISA on lysates of TNF-α stimulated HUVECs
Assay type: cell-based
Settings: Homo sapiens, HUVEC, 50 uM, approx. 16 hours
Experimental: Compounds were dissolved in DMSO, aliquoted, and stored at −20° C. Cultured human vascular endothelial cells (HUVECs) were seeded in 96-well plates in complete EGM-2 media (˜100 μL/well); cells were plated at ˜2-3×10^5/mL, and were from passage 8 to 12. Cells were incubated overnight. […] Cell culture media was analyzed using an MCP-1 ELISA. […] Media optical density (at 490 nm) was determined after 1 hour. […]
QUANTITY KIND: inhibition at 50 µM

Qu. Which value of inhibition at 50 µM has been reported for CNc1nc(-c2ccc(O)c(F)c2)cc2c(OC)cccc12 [EXAMPLE 17] in the records?
Ans. ≥ 50%
